src = patent US8618286B2

Molecular target: Nitric oxide synthase (neuronal, human recombinant) nNOS (Homo sapiens (Human), UniProt P29475)
Experiment: Human nNOS enzyme assay ([3H]-L-arginine to L-citrulline conversion)
Details: recombinant human nNOS
Can you tell me log10 of IC50 for the items I'm about to list?
Could you please treat all values as log10 of IC50 in nM?

Ask: Look at this compound and give its reported log10 of IC50. CNCCN1CCSc2ccc(NC(=N)c3cccs3)cc21
Result: 1.90

Ask: Record: CNCCCN1CCSc2cc(NC(=N)c3cccs3)ccc21
Result: 1.45

Ask: Record: N=C(Nc1ccc2c(c1)N(CCNCCO)CCS2)c1cccs1
Result: 2.18

Ask: Record: CN(C)CCN1CCSc2ccc(NC(=N)c3cccs3)cc21
Result: 2.11

Ask: Record: N=C(Nc1ccc2c(c1)OCCN2CCN1CCCC1)c1cccs1
Result: 2.61

###

Target: Nitric oxide synthase (neuronal, human recombinant) nNOS (Homo sapiens (Human), UniProt P29475)
Experiment: Human nNOS enzyme assay ([3H]-L-arginine to L-citrulline conversion)
Format: biochemical
Settings: ratio of human eNOS IC50 to human nNOS IC50
Structures can show the parent of a compound that is named as a salt.
Hi! Could you tag entries with Selectivity eNOS/nNOS below 200 as true, and those at or above as false? Much appreciated.

Ask: Is Selectivity eNOS/nNOS of CN(C)CCN1CCSc2cc(NC(=N)c3ccco3)ccc21 strictly below 200?
Result: false

Ask: Record: N=C(Nc1ccc2c(c1)N(CCN1CCCC1)CCS2)c1cccs1
Result: true

Ask: Record: N=C(Nc1ccc2c(c1)N(CCNCCO)CCS2)c1cccs1
Result: true

Ask: Record: CNCCN1CCSc2cc(NC(=N)c3cccs3)ccc21
Result: false

Ask: Record: CN(C)CCN1CCOc2ccc(NC(=N)c3cccs3)cc21
Result: true

Ask: Record: CN1CCCC1CCN1CCSc2cc(NC(=N)c3cccs3)ccc21 (centres unmarked)
Result: true

Ask: Record: N=C(Nc1ccc2c(c1)OCCN2CCN1CCCC1)c1cccs1
Result: true

Ask: Record: N=C(Nc1ccc2c(c1)SCCN2CCCN1CCCC1)c1cccs1
Result: true

Ask: Record: CNCCN1CCSc2cc(NC(=N)c3ccco3)ccc21
Result: false

Ask: Record: N=C(Nc1ccc2c(c1)SCCN2CCN1CCCC1)c1cccs1
Result: true

Ask: Record: CN1CCCC1CCN1C(=O)COc2cc(NC(=N)c3cccs3)ccc21 (centres unmarked)
Result: true

Ask: Record: CCNCCN1CCOc2cc(NC(=N)c3cccs3)ccc21 [Compound 7, dihydrochloride]
Result: true

Ask: Record: CNCCN1CCSc2ccc(NC(=N)c3cccs3)cc21
Result: true

Ask: Record: N=C(Nc1ccc2c(c1)OCC(=O)N2CCN1CCCC1)c1cccs1
Result: true

Ask: Record: N=C(Nc1ccc2c(c1)N(C1CCNCC1)CCS2)c1cccs1
Result: false

Ask: Record: CCNCCN1CCSc2ccc(NC(=N)c3cccs3)cc21
Result: true

Ask: Record: CN(C)CCN1CCSc2ccc(NC(=N)c3cccs3)cc21
Result: false

Ask: Record: CN(C)CCN1C(=O)COc2cc(NC(=N)c3cccs3)ccc21
Result: true

Ask: Record: CNCCCN1CCSc2cc(NC(=N)c3cccs3)ccc21
Result: false

Ask: Record: N=C(Nc1ccc2c(c1)SCCN2CCN1CCCCC1)c1cccs1
Result: true
